- Experimental system: Nuclear receptor subfamily 1 group I member 2 (Homo sapiens) (UniProt O75469)
- Sequence (O75469 whole entry, looked up): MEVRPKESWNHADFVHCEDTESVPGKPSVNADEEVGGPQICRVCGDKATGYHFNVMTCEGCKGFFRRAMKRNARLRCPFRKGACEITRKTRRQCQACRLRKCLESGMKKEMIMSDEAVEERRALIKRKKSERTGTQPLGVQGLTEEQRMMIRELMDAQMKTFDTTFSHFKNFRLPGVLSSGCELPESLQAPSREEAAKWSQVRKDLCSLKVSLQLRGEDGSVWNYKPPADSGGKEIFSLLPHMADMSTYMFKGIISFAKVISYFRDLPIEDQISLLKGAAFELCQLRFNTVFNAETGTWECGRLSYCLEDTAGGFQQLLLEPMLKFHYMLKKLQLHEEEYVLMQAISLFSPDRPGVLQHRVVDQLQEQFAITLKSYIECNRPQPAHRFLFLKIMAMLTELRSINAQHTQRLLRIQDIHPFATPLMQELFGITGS
- Assay text: Human pregnane X receptor (PXR) small molecule agonists, qHTS assay (AID 1346982); also: nearly all actives have a fitted effect of over 35% in size; as to activation: % is scaled to controls: 0 for no effect and ±100 for the full control effect
- Cond: PXR-Luc HepG2, CYP3A4 luciferase reporter, 24 h; series mostly up to 92.4 µM
Inconclusive results are not listed. Active and inactive are the calls of the source. Calls follow the shape of the dose curve; as a rule, active = well fitted activation curve with a large enough effect in the repeat runs; inconclusive = weak or mixed curves; inactive = no such curve, though single readings can be large or run the other way.
Outcomes: class 1 (active), class 0 (inactive)

1) Cc1occc1S: class 1
2) O=C(O)C(c1ccc(Cl)cc1)c1ccc(Cl)cc1: class 0
3) CN1CCC[C@@H]1c1cccnc1: class 0
4) CC(C)(Oc1ccc(Cl)cc1)C(=O)OCCCOC(=O)C(C)(C)Oc1ccc(Cl)cc1: class 0
5) CC[C@H](C)[C@H](N)C(=O)O: class 0
6) c1ccc(-c2nc[nH]c2-c2ccccc2)cc1: class 0
7) O=C(/C=C/c1ccc(O)c(O)c1)O[C@@H]1C[C@](O)(C(=O)O)C[C@@H](O)[C@H]1O: class 0

* * *

- Assay text: A CellTox Green Cytotoxicity Assay to monitor cytotoxicity in HepG2 cells - 40 hour (AID 1224879); also: nearly all actives have a fitted effect of over 40% in size
- Cond: CellTox Green fluorescence; series mostly up to 76.8 µM
Inconclusive results are not listed. Active and inactive are the calls of the source. Calls come from the whole dose curve; as a rule, active = well fitted activation curve with a large enough effect in the repeat runs; inconclusive = weak or mixed curves; inactive = flat fitted curve, though single readings scatter.
Outcomes: active, inactive

1) C[Si](C)O[Si](C)(C)O[Si](C)(C)O[Si](C)C: inactive
2) O=C(O)Cc1cc(I)c(Oc2ccc(O)c(I)c2)c(I)c1: inactive
3) CC(=O)OCCc1ccccc1: inactive
4) CCCCCCCCCCCCCCCBr: inactive
5) Nc1ccc(C(=O)Nc2ccccc2N)cc1: active
6) CCCCOC(O)CC (configuration not stated): inactive
7) CC(C)(C)c1cc(CCC(=O)OCC(COC(=O)CCc2cc(C(C)(C)C)c(O)c(C(C)(C)C)c2)(COC(=O)CCc2cc(C(C)(C)C)c(O)c(C(C)(C)C)c2)COC(=O)CCc2cc(C(C)(C)C)c(O)c(C(C)(C)C)c2)cc(C(C)(C)C)c1O: inactive

* * *

- Assay text: A CellTox Green Cytotoxicity Assay to monitor cytotoxicity in HepG2 cells - 8 hour (AID 1224890); also: % is scaled to controls: 0 for no effect and ±100 for the full control effect; nearly all actives have a fitted effect of over 45% in size
- Cond: CellTox Green fluorescence; series mostly up to 76.8 µM
Records with an inconclusive call do not appear. The source made the active and inactive calls. The call rests on the fitted dose curve; in most records, active means well fitted activation curve with a large enough effect in the repeat runs; inconclusive means weak or mixed curves; inactive means flat fitted curve, though single readings scatter.
Measured quantity: cytotoxicity increase

1. O=[N+]([O-])c1cccc(Cl)c1Cl: inactive
2. NC[C@H]1O[C@H](O[C@H]2[C@H](O)[C@@H](O[C@H]3O[C@H](CO)[C@@H](O)[C@H](N)[C@H]3O)[C@H](N)C[C@@H]2N)[C@H](O)[C@@H](O)[C@@H]1O: 21.1% [at 6.97 µM] (inactive)
3. CC(C)=CCCC(C)CC=O (stereo unspecified): inactive
4. Cc1ccc(C(=O)C(C)CN2CCCCC2)cc1 (stereo unspecified): inactive
5. CC[C@H](C)[C@@H](C(=O)O)n1sc2ccccc2c1=O: inactive
6. CC(=O)CC(=O)c1ccccc1: inactive
7. CN(C)CCCOc1nn(Cc2ccccc2)c2ccccc12: inactive
8. CC(=O)/C=C/C1C(C)=CCCC1(C)C (stereo unspecified): inactive
9. CC(C)CCCCCCOC(=O)c1ccc(C(=O)OCCCCCCC(C)C)c(C(=O)OCCCCCCC(C)C)c1: inactive
10. CCN(CC)CCOC(=O)C1(c2ccccc2)CCCC1: inactive
11. O=C(CCN1CCN2CCCC2C1)N1c2ccccc2Sc2ccc(Cl)cc21 (stereo unspecified): 7.39% [at 15.8 µM] (inactive)

* * *

- Experimental system: Cytochrome P450 2C9 (Homo sapiens) (UniProt P11712)
- Sequence (P11712 whole entry, looked up): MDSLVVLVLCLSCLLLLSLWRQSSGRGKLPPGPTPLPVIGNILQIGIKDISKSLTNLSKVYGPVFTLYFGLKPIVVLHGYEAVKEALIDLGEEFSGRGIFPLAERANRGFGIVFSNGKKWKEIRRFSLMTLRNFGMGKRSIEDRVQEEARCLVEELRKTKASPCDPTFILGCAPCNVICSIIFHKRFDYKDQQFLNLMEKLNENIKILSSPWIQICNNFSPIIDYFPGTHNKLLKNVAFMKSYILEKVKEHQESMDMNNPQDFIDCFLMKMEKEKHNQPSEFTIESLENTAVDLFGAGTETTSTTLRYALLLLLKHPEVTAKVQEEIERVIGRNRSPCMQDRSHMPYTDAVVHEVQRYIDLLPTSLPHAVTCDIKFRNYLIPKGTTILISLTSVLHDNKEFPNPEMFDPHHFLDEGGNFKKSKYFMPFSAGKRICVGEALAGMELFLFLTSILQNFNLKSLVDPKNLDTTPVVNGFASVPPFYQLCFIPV
- Assay text: Cytochrome P450 Family 2 Subfamily C Member 9 (CYP2C9) small molecule antagonists: luciferase reporter qHTS assay (AID 1671198); also: nearly all actives have a fitted effect of over 50% in size; also: potency is read from the fitted curve at half-maximal effect
- Cond: P450-Glo CYP2C9 enzyme assay, luciferin luminescence; series mostly up to 115 µM
- Text: U.S. Tox21 Program National Center for Advancing Translational Sciences [NCATS] U.S. Environmental Protection Agency [EPA] National Institutes of Environmental Health Sciences [NIEHS] National Toxicology Program [NTP] U.S. Food and Drug Administration [FDA] […] The luciferin products formed are detected with a luciferin detection reagent, and the amount of light produced is proportional to CYP activity. […]
Records with an inconclusive call do not appear. Active and inactive are the calls of the source. Calls come from the whole dose curve; as a rule, active = well fitted inhibition curve with a large enough effect in the repeat runs; inconclusive = weak or mixed curves; inactive = no such curve, though single readings can be large or run the other way.
Measured quantity: Potency

1) O=c1[nH]cnc2ccccc12: inactive
2) O=CNc1ccccc1: inactive
3) O=[N+]([O-])c1cccc(Cl)c1Cl: inactive
4) COc1ccccc1OC(=O)Oc1ccccc1OC: inactive
5) O=c1c2ccccc2nnn1CCl: 71 µM (active)
6) COc1ccc2[nH]c(S(=O)Cc3ncc(C)c(OC)c3C)nc2n1 (configuration not stated): 17.4 µM (active)
7) NCc1ccccc1: inactive
8) Cn1c(=O)c2c(ncn2CC(O)CO)n(C)c1=O (configuration not stated): inactive
9) CCOC(=S)SSC(=S)OCC: 17.8 µM (active)
10) CC(C)(C)c1ccc(S)cc1: 31.7 µM (active)
11) Cc1ccc2c(ccc3ccccc32)c1: 35.7 µM (active)
12) CC(=O)c1ccc2c(c1)[C@H](NC(=O)c1ccc(F)cc1)[C@@H](O)C(C)(C)O2: 33.5 µM (active)
13) CCCCOCCOCCOCCOCCO: inactive
14) Oc1ccc(O)c2c(O)cccc12: inactive
15) CN1CCC(=C2c3ccccc3CCc3sccc32)CC1: inactive
16) N=C(N=C(N)N)N1CCOCC1: inactive
17) CCCCOC(=O)c1ccccc1C(=O)OCC(CC)CCCC (configuration not stated): 12.6 µM (active)

* * *

- Assay text: qHTS assay to identify small molecule antagonists of the constitutive androstane receptor (CAR) signaling pathway - cell viability counter screen (AID 1224837); also: nearly all actives have a fitted effect of over 45% in size
- Cond: HepG2-CYP2B6-hCAR viability, CellTiter-Fluor, 23 h, co-treated with 50 nM CITCO; series mostly up to 92.4 µM
Records with an inconclusive call do not appear. Calls of active or inactive are those of the source. Calls follow the shape of the dose curve; as a rule, active = well fitted cell-killing curve with a large enough effect in the repeat runs; inconclusive = weak or mixed curves, or effect the other way; inactive = flat fitted curve, though single readings scatter.
Outcomes: Y (active), N (inactive)

1) CCCCCCc1ccc(N)cc1: N
2) CC(=O)OCCc1ccccc1: N
3) Cc1occc1S: N
4) CC(Cc1cccc(C(F)(F)F)c1)NCCOC(=O)c1ccccc1 (stereo not given): N
5) Oc1ccc(O)c2c(O)cccc12: N
6) Cc1cccc(OCCOc2cccc(C)c2)c1: N
7) Oc1ccc(Sc2ccc(O)cc2)cc1: N
8) CC(=O)/C=C/C1C(C)=CCCC1(C)C (stereo not given): N
9) CCCCOC(=O)/C=C\C(=O)OCCCC: N
10) CC(C)(C)c1cc(CCC(=O)OCC(COC(=O)CCc2cc(C(C)(C)C)c(O)c(C(C)(C)C)c2)(COC(=O)CCc2cc(C(C)(C)C)c(O)c(C(C)(C)C)c2)COC(=O)CCc2cc(C(C)(C)C)c(O)c(C(C)(C)C)c2)cc(C(C)(C)C)c1O: N
11) O=S1(=O)c2cccc3cccc(c23)N1CCCN1CCN(c2ccc(F)cc2)CC1: N
12) CCOc1cc(OCC)c(C(=O)CCC(=O)O)cc1OCC: N
13) Cc1ccc2c(ccc3ccccc32)c1: N
14) CC/C(=C\C(=N/O)C(N)=O)C(C)[N+](=O)[O-] (stereo not given): N
15) Cc1ccc(C(C)c2ccc(C)c(C)c2)cc1C: N
16) CCCCCC/C=C/C=O: N
17) CCCCOc1cc(C(=O)OCCN(CC)CC)ccc1N: N
18) O=CNc1ccccc1: N
19) O=C(O)c1cn(C2CC2)c2cc(Cl)c(F)cc2c1=O: N
20) CCCCCCCCCO: N
21) CCCCOC(=O)c1ccccc1C(=O)OCC(CC)CCCC (stereo not given): N
22) CCCCCCCCCCCCCCCC(=O)OC/C=C(C)/C=C/C=C(C)/C=C/C1=C(C)CCCC1(C)C: N
23) O=[N+]([O-])c1cc[n+]([O-])cc1: Y
24) N=C(N=C(N)N)N1CCOCC1: N
25) O=C(O)Cn1c(C(=O)Nc2nc(-c3ccccc3Cl)cs2)cc2ccccc21: N
26) O=C(O)C(c1ccc(Cl)cc1)c1ccc(Cl)cc1: N
27) CC(C)(C)c1ccc(OCC2CO2)cc1 (stereo not given): N
28) CCCCCCCCCCCCC(=O)O: N
29) CC[C@H](C)[C@@H](C(=O)O)n1sc2ccccc2c1=O: N
30) CCCCCOC(=O)c1ccc(O)cc1: N

* * *

- Assay text: qHTS assay for small molecule disruptors of the mitochondrial membrane potential (AID 720635)
- Cond: HepG2 mitochondrial membrane potential, Mito-MPS dye ratio; series mostly up to 83.2 µM
Results filed as inconclusive are left out. The source made the active and inactive calls. Calls follow the shape of the dose curve; as a rule, active = well fitted inhibition curve with a large enough effect in the signal ratio in the repeat runs; inconclusive = weak or mixed curves, or effect the other way; inactive = flat fitted curve, though single readings scatter; the % refers to the signal ratio.
Outcomes: true (1) (active), false (0) (inactive)

1) CC(C)c1ccc2c(C(C)C)cc(C(C)C)c(S(=O)(=O)O)c2c1: false (0)
2) O=C(CC(=O)c1ccccc1)c1ccccc1: true (1)
3) C[C@@H](C1=C(CCN(C)C)Cc2ccccc21)c1ccccn1: false (0)
4) COc1ccccc1OC(=O)Oc1ccccc1OC: false (0)
5) O=C(O)Cc1cc(I)c(Oc2ccc(O)c(I)c2)c(I)c1: true (1)
6) Oc1ccc2c(c1)OCO2: false (0)
7) Cc1ccc(C(N)=O)cc1N: false (0)
8) CCCCOC(O)CC (stereo not given): false (0)
9) CC/C(=C\C(=N/O)C(N)=O)C(C)[N+](=O)[O-] (stereo not given): false (0)
10) CCN(CC)C(C)=O: false (0)
11) FC(F)(F)C(F)(F)C(F)(F)C(F)(F)C(F)(F)C(F)(F)CCI: false (0)
12) Nc1ccc(C(=O)Nc2ccccc2N)cc1: true (1)
13) Cc1occc1S: false (0)
14) CCC(C)N(C)C(=O)c1cc2ccccc2c(-c2ccccc2Cl)n1 (stereo not given): false (0)
15) N#CCc1cccc(C(F)(F)F)c1: false (0)
16) O=C(O)[C@@H]1[C@H]2C[C@H]3c4[nH]c5ccccc5c4CCN3C[C@@H]2CC[C@@H]1O: true (1)
17) CC(C)(C)C1CCCCC1O (stereo not given): false (0)
18) NCc1ccccc1: false (0)
19) CN1CCC[C@@H]1c1cccnc1: false (0)
20) O=C(Cl)c1c(Cl)cccc1Cl: false (0)
21) CC(=O)SCc1ccco1: false (0)
22) Cc1cccc(C(C)(C)C)c1O: false (0)
23) CC(C)(C)c1ccc(OCC2CO2)cc1 (stereo not given): false (0)
24) CC(CN)CCCN (stereo not given): false (0)
25) COc1ccc(OC)c(OC)c1: false (0)
26) Cn1c(N)nc2nc[nH]c2c1=O: false (0)
27) NC1CCN(c2nc3c(cc2F)c(=O)c(C(=O)O)cn3-c2ccc(F)cc2F)C1 (stereo not given): false (0)
28) Oc1ccc(Sc2ccc(O)cc2)cc1: true (1)
29) CNS(=O)(=O)Cc1ccc2[nH]cc(CCN(C)C)c2c1: true (1)
30) CC(C)CCCC(C)CCO (stereo not given): false (0)

Where these numbers come from: PubChem BioAssay (Tox21)
